# Tested on: DU-145
# ASSAY_OVERVIEW: NCI tumour cell line growth inhibition, 48 h
Activity calls are given as the source filed them. No stated cut-off is given here; in the data, active = GI50 up to about 1.1 µM and inactive = higher. Where a SMILES comes first, the peptide text is derived from it. [ ]: non-standard residue; d: D form. The star is where a group is joined. ξ: configuration not given here. ξD = NC(CC(=O)O)C(=O)O; Boc = CC(C)(C)OC(=O)*; Aib = CC(C)(N)C(=O)O; OBn = c1ccc(CO*)cc1
Kindly supply the reported GI50 values for the records listed here.

For DU-145, provide GI50 of Cc1cc(N)c2ccccc2[n+]1CCCCCCCCCC[n+]1c(C)cc(N)c2ccccc21 [DEQUALINIUM CHLORIDE] please.
2.74 µM (inactive)

Next: CCOC(=O)CSc1nc2ccccc2c(=O)n1N
40.9 µM (inactive)

Next: C=CCn1c(N)c(C#N)c(C#N)c1-c1ccccc1
> 100 µM (inactive)

Next: CN1CCCCC1CCN1c2ccccc2Sc2ccc([S+](C)[O-])cc21 (centres undefined)
> 100 µM (inactive)

Next: C=C1CC[C@@]2(C)[C@@H]([C@@H]1C)[C@H]1CC[C@@H]3[C@@]4(C)CC[C@H](O)C(C)(C)[C@@H]4CC[C@@]3(C)[C@]1(C)C[C@@H]2O
4.57 µM (inactive)

Next: Cc1ccc(C(=O)NCc2ccccc2)cc1/N=N/N(C)C
> 100 µM (inactive)

Next: Cc1cc(O)c2c(c1)C(=O)C(c1c(C)cc3c(c1O)C(=O)C1OC1C3=O)=CC2=O (centres undefined)
6.7 µM (inactive)

Next: c1ccc(N/N=N/c2ccc(-c3nc4ccccc4o3)cc2)nc1
43.6 µM (inactive)

Next: C=CCN1CCC(c2cc(C(=O)OCC)[nH]c2-c2cc(C)no2)C1=O (centres undefined)
> 100 µM (inactive)

Next: O=[N+]([O-])c1ccc(S(=O)(=O)n2c3ccc(Br)cc3c3nc4ccccc4nc32)cc1
> 100 µM (inactive)

Next: N#CCCN(CCC#N)c1ccc(/C=C2\N=C(c3ccccc3)N(c3ccc(Cl)cc3)C2=O)cc1
> 100 µM (inactive)

Next: CC(C)(C)OC(=O)NC(CC(=O)OCc1ccccc1)C(=O)NC(C)(C)C(N)=O (centres undefined) (Boc-[ξD](OBn)-[Aib]-NH2)
> 100 µM (inactive)

Next: CC1(C)C(=O)c2ccccc2OC1N1CCN(C2Oc3ccccc3C(=O)C2(C)C)CC1 (centres undefined)
> 100 µM (inactive)

Next: COc1c2occc2c(OC)c2c(=O)c(S(=O)(=O)NC(=O)Nc3ccc(Cl)cc3)coc12
> 10 µM (inactive)

Next: C1CSCCCSCCCSCCCSCCCSCCCSCCCSCCCSC1
> 100 µM (inactive)

Next: Nc1nc(N)c2c(n1)NC(=O)c1c(c3ccccc3n1Cc1ccc(Cl)cc1)C2
14.4 µM (inactive)

Next: CSCCCS/C1=C/CCCCCCCCCC1
> 100 µM (inactive)

Next: C=C1[C@@H]2CCC3[C@]4(C)C(CC[C@@]5(C)C(=O)O[C@H](O)[C@@H]45)[C@H](O)[C@]3(C2)[C@H]1OC1OC(CO)C(O)C(O)C1O (some centres undefined)
> 50 µM (inactive)

Next: NNC(=O)c1nnn(CCc2ccccc2)c1C(=O)NN
> 100 µM (inactive)
